assay: qHTS Assay for Spectroscopic Profiling in 4-MU Spectral Region; settings: compound autofluorescence, 340/450 nm, 4-MU equivalents
In all, about 59,000 compounds went through this assay and about 6,200 (11%) were called active. About 9% were inconclusive and are not listed. No stated cut-off is given here; in the data, active means max dye-equivalent concentration above about 10 nM; inconclusive means mostly about 1.1 nM to 9.6 nM; inactive means weaker than that. This excerpt belongs to a sample that is enriched for actives.
A correct response names exactly one class from active, inactive

Worked set:
compound | category-label
O=C1[C@@H]2C(Cc3ccc(O)cc3)NC3(C(=O)Nc4ccc(F)cc43)[C@@H]2C(=O)N1c1ccc(F)cc1 (stereo partly specified) | inactive
COc1ccc(Cl)cc1NC(=O)C1CC(=O)N(c2ccc(F)cc2)C1 (stereo unspecified) | inactive
CCOC(=O)CCc1c(C)c2ccc(OCc3nn[nH]n3)c(C)c2oc1=O | active

Please turn your attention to the following entry.
stdin: What is the recorded call for this compound in the test? "N#Cc1ccc(CSc2nnc(-c3ccccn3)n2-c2ccc(Cl)cc2)cc1"
stdout: inactive
